# Method Description: yeast display, Sf9 membrane polyspecificity reagent, FACS + sequencing; frameworks hold sequencing errors
Readout Label: polyreactivity (PSR sort gate)

QVQLVESGGGLVQAGGSLRLSCAASGLIFLVNAMGWYRQAPGKERELVAAIDRDGGITYADSVKGRFTISRDNAKNTVYLQMNSQKPEDTAVYYCAADPSSYGRFTYDYWGQGTQVTVSS = low polyreactivity
QVQLVESGGGLVQAGGSLRLSCDASGSTFYVYAMGWYRQAPGKERELVASINSSTSTNYADSVKGRFTISRDNAKNTVYLQMNSLKPEDTAVYYCAADSRVPEYRSPKNDYWGQGTQVTVSS = low polyreactivity
QVQLVESGGGLVQAGGSLRLSCAASGYIFYHNTMGWYRQEPGKERELVAAITIGGRTYYADSVKGRFTISRDNAKNTVYLQMNSLKPEDTAVYYCATASYRNPSDYWGQGTQVSVSS = high polyreactivity
QVQLVESGGGLVQAGGSLRLSCAASGSIFRGNAMGWYRQAPGKERELVAAITRSGGRTYYADTVKGRFTISRDNAKNTVYLHMNSLKPEDTAVYYCAAEYYTRLGYWGQGTQVTVSS = high polyreactivity

Next sequence, polyreactivity (PSR sort gate) to be filled in.
sequence QVQLVESGGGLVQAGGSLRLSCAASGIIFPFYAMGWYRQAPGKERELVAAITSGDDTYYADSVKGRFTISRDNAKNTVYLQMNSLKPEDTAVYYCNKRLYIAGYWPQLYYIMDYWGQGTQVTVSS , polyreactivity (PSR sort gate) observed: low polyreactivity

---

# Method Description: yeast display, Sf9 membrane polyspecificity reagent, FACS + sequencing; frameworks hold sequencing errors
Readout Label: polyreactivity (PSR sort gate)

Illustrative cases are given below, each with its answer.
QVQLQESGGGQVQAGGSLRLSCAASGNNSVTGFMGRYRQAPGKERELVASIGIGGTTYYADSVKGRFSISRDNAKNTVYLQMNSLKPEDTAVYYCAARYLYYAYSYWGQGTQVTVSS = low polyreactivity
QVQLVESGGGLVQAGGSLRLSCAASGRTFRLNAMGWYRQAPGKERELVAAITLGGGRTYYADSVKGRFTISRDNAKNTVYLQMNSLKPEDTAVYYCNKVKRSYYYVDTDYWGQGTQVTVSS = high polyreactivity
QVQLVESGGGLVQAGGSLRLSCAASGFNFTLNTMGWYRQAPGKERELVAAINSGDSTYADSVKGRFTISRDNAKNTVYLQMNSLKPEDTAVYYCNADPDWWYPFNYWGQGTQVTVSS = low polyreactivity
QVQLVESGGGLVQAGGSLRLSCAASGYIFTSYAMGWYRQAPGKERELVATITTGGSTYYADSVKGRFTISRDNAKNTVYLQMNSLKPEDTAVYYCNAVLHGWYDYWGQGTQVTVSS = low polyreactivity
QVQLVESGGGLVQAGGSLPLSGAPSGSTFGYNTMGWSRQAPGKESELVAAITSGGRTYYADSVKGRFTISRDNAKNTVYLQRNSLKPEDTAVYYCAAYYWWGYPENDYWVQGTQVTVSS = high polyreactivity

For each entry beneath this line, provide reported polyreactivity (PSR sort gate).
1. QVQLVESGGGLVQAGGSLRLSCAASGRTLVHYAMGWYRQAPGKERELVAAISYSGGRTYYADSVKGRFTISRDNAKNTVYLQMNSLKPEDTAVYYCAAEIVYPAIGGYGYWGQGTQVTVSS
2. QVQLVESGGGLVQAGGSLRLSCSASGITFKLNSMGWYRQAPGKERELVAAITSTGGSTYYADSVKGRFTISRDNAKNTVYLQMNSLKPEDTAVYYCATDILIDGFYSDYWGQGTQVTVSS
3. QVQLVESGGGLVQAGGSHRLSCAASGSTFWGYTMRWYRQAPGKERELVAAITRSSGRTYYADSVKGRFTISRDNAKITVYLQMNSLKPEETAVYYCNAAAVGRRTWSPYDYWGQGTQVTVSS
4. PVQLQQSGSGLVQAGGSLRLSCAASGYISLGDNKGWYRQAPGKEREFDATISVGGITYYVDSVKGPFTISRDIAKNTVYLQMNSVKPEDTAVYYCAALDIYYLRYYYWGQGTQVTLSS
5. QVQLVESGGGLVQAGGSLRLSCAASGFTFSSNAMGSYRQAPGKERELVAAISFNSTSTYYADSVKVRFTISRDNAKNTVYLQMNSLKPEDTAVYYCAADVPRVQSEPEYDYSGQGTQVTVSS
6. QVQLVESGGGLVQAGGSLRLSCAASGITFPRYAMGWYRLAPGKERELVATITRSGGGTYYADSVKGRFTISRDNAKNTVYLQMKSLKPEDTAVYYCAAGALQRGVYGYGYWGQGTEVTVSS
7. QVHLVESGGVLVQAGGSLRLSCAAYGSTFSWNAMGWYRQSPWKESELVAPITTRGGSTYYADSVKGRFTISRDNAQNTVYLEMNSLKPEDTAVYDCAASYGYRGGWGPGVDYWGQCTQVTVSS
8. QVQLVESGGGLVQAGGSLRLSFAASGSTFTINAMGWYRPAPGKERELVAAINDGHDTYYADSVKGRFTISRDNAKNTVYLQMNSLKPEDTAVYFCAADIIYGYEVYTYTSDYWGQGTQVTVSS

["low polyreactivity", "high polyreactivity", "high polyreactivity", "low polyreactivity", "low polyreactivity", "high polyreactivity", "low polyreactivity", "low polyreactivity"]

Please give polyreactivity (PSR sort gate) for each item listed below.
1. QVQLVESGGCSVQAGGSLRLSCAAAGRIFSYYAMGWYRQAPGKERELVAAITSGGRTYYADSVKGRFTISRDNAKTTVYLQMNSLKPEDTAVYYCAVGVRNQYYYWGQGTQVTVSS
2. QVQLVDSGGGLVQAGGSLLLSCAASGHTLYRNAMGWYRQAPGKERELVAAITSRGGSTFYADSVKGRFTISRDNAKNSVYLQMNCLQPEDTAVYYCNTARGTAPAHDYWGQGTQVTVSS
3. QVQLVESGGGLVQAGGSLRLSCAASARTFATYAMGWYRHAPGKEWELVAGITSGGNTYYADSVKGRFTISRDNAKNTVYLQMNSLKPVDTAVYYCAADRVYLGLFRYEYWGQGTQVTVSS

["high polyreactivity", "low polyreactivity", "high polyreactivity"]

Please give polyreactivity (PSR sort gate), item by item, for the list that follows.
1. QVQLVESGGGLVQAGGSLRLSCAASGSIFRGYAMGSYRQAPGKERELVATIDSSAGSTYYADSVKGRCTISRDNAKNTVYLQMNSLKPEDTAVYYCATDPYGYYYSGFDYWGQGTQVTVSS
2. QVQLVESGGGLVQAGGSLRLSCAASGSTLNSYVMGWYRQAPGKERELVATIRSGSSTNYADSVKGRFTISRDNAKNTVYLQMNSLKPEDTAVYYCAGDAYSLCYDSWGQGTQVTVSS
3. QVQLVESGGGLVQAGGSLRLSCAASGRIFKRYTMGWYRQAPGKERELVAGITFSGGSTYYADSVKGRFTISRDNAKNTVYLQMHSLKPEDTAVYDCNARVPPQGWGPWKAFDYWGQGTQVTVSS
4. QVQLVESGGGLVQAGGSLRLSCAASGITFGDYAMGWYRQAPGKEMEMVAGINWSGDGTYYADSVKGRFTISRDNAKNTVYLQMNSLKPEDTAVYYCNARGIPLYSYRDYRFVVLNFDYWGQGTQVTVSS

["low polyreactivity", "low polyreactivity", "low polyreactivity", "low polyreactivity"]

So, QVQLVESGGGLVQAGGSLRLSCAASGSTFFGNTMGWYRQAPGKERELVAAITYRGSTYYADSVKGRFTISRDNAKNTVYLQMNSLKPEDTAVYYCAADGRWYNSESEYDYWGQGTQVTVSS ? Its polyreactivity (PSR sort gate) was low polyreactivity
